Species on record: Rattus norvegicus
testSummary: Open TG-GATES - Regimen: Single
Format: toxicity, organism-based, Sprague-Dawley
Parameters: regimen Single, gender Male, age 6 weeks
particulars: in vivo, po, 0 mg/kg, 6 h, tissue Blood, route gavage, dose level Control
measuredQuantity: Ret (%)

• O=NN(CCCl)C(=O)NC1CCCCC1 = 8.9
• OCCOCCN1CCN(C(c2ccccc2)c2ccc(Cl)cc2)CC1 (stereo not given) [HYDROXYZINE] = 9
• ClC(Cl)(Cl)Cl [CARBON TETRACHLORIDE] = 8.9
• CCC1(c2ccccc2)C(=O)NC(=O)NC1=O = 8.1
• CC1=C(CC(=O)O)c2cc(F)ccc2/C1=C\c1ccc([S+](C)[O-])cc1 (stereo not given) = 7.7
• CN(C)CCC=C1c2ccccc2COc2ccccc21 [DOXEPIN] = 9.3
• CC[C@H]1[C@@H]2C[C@H]3[C@@H]4N(C)c5ccccc5[C@]45C[C@@H]([C@@H]2[C@H]5O)N3[C@@H]1O = 10.6
• CC(C)N(CCC(C(N)=O)(c1ccccc1)c1ccccn1)C(C)C (stereo not given) [DISOPYRAMIDE] = 7.8
• CN(C)C(=N)N=C(N)N = 9.2
• CCc1oc2ccccc2c1C(=O)c1cc(Br)c(O)c(Br)c1 = 7.9

###

Species: Rattus norvegicus
testSummary: Open TG-GATES - Regimen: Single
Type: toxicity, organism-based, Sprague-Dawley
Design: regimen Single, gender Male, age 6 weeks
particulars: in vivo, po, 0 mg/kg, 6 h, tissue Plasma, route gavage, dose level Control
Form field: gamma-GTP (one value per entry).
measuredQuantity: gamma-GTP

- CC[C@H]1[C@@H]2C[C@H]3[C@@H]4N(C)c5ccccc5[C@]45C[C@@H]([C@@H]2[C@H]5O)N3[C@@H]1O: 1.6 IU/L
- CN(C)C(=N)N=C(N)N: 1 IU/L
- ClC(Cl)(Cl)Cl [CARBON TETRACHLORIDE]: 1 IU/L
- CN(C)CCC=C1c2ccccc2COc2ccccc21 [DOXEPIN]: 1.2 IU/L
- CCC1(c2ccccc2)C(=O)NC(=O)NC1=O: 1 IU/L
- CC1=C(CC(=O)O)c2cc(F)ccc2/C1=C\c1ccc([S+](C)[O-])cc1 (stereo not given): 1.6 IU/L
- O=NN(CCCl)C(=O)NC1CCCCC1: 1 IU/L
- CCc1oc2ccccc2c1C(=O)c1cc(Br)c(O)c(Br)c1: 1.2 IU/L
- OCCOCCN1CCN(C(c2ccccc2)c2ccc(Cl)cc2)CC1 (stereo not given) [HYDROXYZINE]: 0.8 IU/L
- CC(C)N(CCC(C(N)=O)(c1ccccc1)c1ccccn1)C(C)C (stereo not given) [DISOPYRAMIDE]: 1.2 IU/L

###

Form field: Eos (one value per entry).
Organism: Rattus norvegicus
testSummary: Open TG-GATES - Regimen: Single
Assay type: toxicity, organism-based, Sprague-Dawley
Set-up: regimen Single, gender Male, age 6 weeks
particulars: in vivo, po, 0 mg/kg, 24 h, tissue Blood, route gavage, dose level Control
measuredQuantity: Eos (%)

- O=NN(CCCl)C(=O)NC1CCCCC1: 0.4
- CCC1(c2ccccc2)C(=O)NC(=O)NC1=O: 1
- CC1=C(CC(=O)O)c2cc(F)ccc2/C1=C\c1ccc([S+](C)[O-])cc1 (stereo unspecified): 1
- ClC(Cl)(Cl)Cl [CARBON TETRACHLORIDE]: 1
- O=NN1CCOCC1: 0.6
- CC(C)N(CCC(C(N)=O)(c1ccccc1)c1ccccn1)C(C)C (stereo unspecified) [DISOPYRAMIDE]: 1
- OCCOCCN1CCN(C(c2ccccc2)c2ccc(Cl)cc2)CC1 (stereo unspecified) [HYDROXYZINE]: 0.8
- CC[C@H]1[C@@H]2C[C@H]3[C@@H]4N(C)c5ccccc5[C@]45C[C@@H]([C@@H]2[C@H]5O)N3[C@@H]1O: 0.8
- CN(C)CCC=C1c2ccccc2COc2ccccc21 [DOXEPIN]: 1.2
- CCc1oc2ccccc2c1C(=O)c1cc(Br)c(O)c(Br)c1: 1.2
- CN(C)C(=N)N=C(N)N: 1

###

Species on record: Rattus norvegicus
testSummary: Open TG-GATES - Regimen: Single
Format: toxicity, organism-based, Sprague-Dawley
Set-up: regimen Single, gender Male, age 6 weeks
particulars: in vivo, po, 100 mg/kg, 24 h, tissue Plasma, route gavage, dose level Low
measuredQuantity: IP (mg/dL)

- O=NN1CCOCC1: 8
- CCC1(c2ccccc2)C(=O)NC(=O)NC1=O: 7.3
- CN(C)CCC=C1c2ccccc2COc2ccccc21 [DOXEPIN]: 7.5
- CN(C)C(=N)N=C(N)N: 8.5

###

Organism: Rattus norvegicus
testSummary: Open TG-GATES - Regimen: Daily Repeat
Format: toxicity, organism-based, Sprague-Dawley
Parameters: regimen Daily Repeat, gender Male, age 6 weeks
particulars: in vivo, po, 0 mg/kg, […], tissue Blood, route gavage, dose level Control, time 28 day
Form field: Hb (one value per entry).
measuredQuantity: Hb (g/dL)

- CCCCc1oc2ccccc2c1C(=O)c1cc(I)c(OCCN(CC)CC)c(I)c1 [AMIODARONE]: 15.5
- CC[C@H]1[C@@H]2C[C@H]3[C@@H]4N(C)c5ccccc5[C@]45C[C@@H]([C@@H]2[C@H]5O)N3[C@@H]1O [AJMALINE]: 15.2
- OCCOCCN1CCN(C(c2ccccc2)c2ccc(Cl)cc2)CC1 (stereo not given) [HYDROXYZINE]: 15.1
- CN(C)C(=N)N=C(N)N [METFORMIN]: 15
- ClC(Cl)(Cl)Cl [CARBON TETRACHLORIDE]: 15.1
- CCC1(c2ccccc2)C(=O)NC(=O)NC1=O [PHENOBARBITAL]: 14.8
- CCc1oc2ccccc2c1C(=O)c1cc(Br)c(O)c(Br)c1 [BENZBROMARONE]: 15.5
- O=NN(CCCl)C(=O)NC1CCCCC1 [LOMUSTINE]: 15
- CN(C)CCC=C1c2ccccc2COc2ccccc21 [DOXEPIN]: 14.7
- CC1=C(CC(=O)O)c2cc(F)ccc2/C1=C\c1ccc([S+](C)[O-])cc1 (stereo not given): 15.2

###

Species on record: Rattus norvegicus
testSummary: Open TG-GATES - Regimen: Daily Repeat
Format: toxicity, organism-based, Sprague-Dawley
Design: regimen Daily Repeat, gender Male, age 6 weeks
particulars: in vivo, po, 0 mg/kg, […], tissue Blood, route gavage, dose level Control, time 14 day
Classify on Mono using bottom bin (below 3%), middle bin (3% to below 4%), top bin (4% or more)

• CC(C)N(CCC(C(N)=O)(c1ccccc1)c1ccccn1)C(C)C (stereo unspecified) [DISOPYRAMIDE] = bottom bin
• ClC(Cl)(Cl)Cl [CARBON TETRACHLORIDE] = bottom bin
• OCCOCCN1CCN(C(c2ccccc2)c2ccc(Cl)cc2)CC1 (stereo unspecified) [HYDROXYZINE] = bottom bin
• CN(C)CCC=C1c2ccccc2COc2ccccc21 [DOXEPIN] = bottom bin
• CN(C)C(=N)N=C(N)N = middle bin
• CCCCc1oc2ccccc2c1C(=O)c1cc(I)c(OCCN(CC)CC)c(I)c1 = bottom bin
• CCC1(c2ccccc2)C(=O)NC(=O)NC1=O = middle bin
• CC1=C(CC(=O)O)c2cc(F)ccc2/C1=C\c1ccc([S+](C)[O-])cc1 (stereo unspecified) = bottom bin
• CCc1oc2ccccc2c1C(=O)c1cc(Br)c(O)c(Br)c1 = top bin
• O=NN(CCCl)C(=O)NC1CCCCC1 = top bin

###

Form field: Ca (one value per entry).
Species on record: Rattus norvegicus
testSummary: Open TG-GATES - Regimen: Single
Format: toxicity, organism-based, Sprague-Dawley
Parameters: regimen Single, gender Male, age 6 weeks
particulars: in vivo, po, 0 mg/kg, 9 h, tissue Plasma, route gavage, dose level Control
measuredQuantity: Ca (mg/dL)

- O=NN(CCCl)C(=O)NC1CCCCC1 [LOMUSTINE]: 10.8
- ClC(Cl)(Cl)Cl [CARBON TETRACHLORIDE]: 10.3
- CCc1oc2ccccc2c1C(=O)c1cc(Br)c(O)c(Br)c1 [BENZBROMARONE]: 10
- CC(C)N(CCC(C(N)=O)(c1ccccc1)c1ccccn1)C(C)C (centres undefined) [DISOPYRAMIDE]: 10.5
- CCC1(c2ccccc2)C(=O)NC(=O)NC1=O [PHENOBARBITAL]: 10.6
- CC1=C(CC(=O)O)c2cc(F)ccc2/C1=C\c1ccc([S+](C)[O-])cc1 (centres undefined): 10.6
- CC[C@H]1[C@@H]2C[C@H]3[C@@H]4N(C)c5ccccc5[C@]45C[C@@H]([C@@H]2[C@H]5O)N3[C@@H]1O [AJMALINE]: 10.4
- OCCOCCN1CCN(C(c2ccccc2)c2ccc(Cl)cc2)CC1 (centres undefined) [HYDROXYZINE]: 10.6
- CN(C)C(=N)N=C(N)N [METFORMIN]: 10.6
